Molecular target: Apoptosis regulator Bcl-2 (Homo sapiens)
Test: Effect on DEVD cleavage by DEVDase assay with anti-Fas antibody treatment using Bcl-2 overexpressing HeLa cells; 3 fold activation concentration (AC3)
Format: functional, cell-based
Listing of entries alongside the reported AC3.

- COC(=O)NC1[C@H](C)O[C@@H](O[C@H]2C/C=C(\C)[C@@H]3C=C[C@@H]4[C@@H](OC5C[C@H](O[C@@H]6CCC(OC7C[C@H](O)[C@@H](OC8CC[C@@H](O)C(C)O8)C(C)O7)[C@H](C)O6)[C@@H](OC(C)=O)C(C)O5)[C@@H](C)C[C@H](C)[C@H]4[C@]3(C)/C(O)=C3\C(=O)O[C@]4(CC(C=O)=CC(O)[C@H]4/C=C\2C)C3=O)CC1(C)[N+](=O)[O-] (stereo partly specified): 2.2 µM
- COC(=O)NC1[C@H](C)O[C@@H](O[C@H]2C/C=C(\C)[C@@H]3C=C[C@@H]4[C@@H](O)[C@@H](C)C[C@H](C)[C@H]4[C@]3(C)/C(O)=C3\C(=O)O[C@]4(CC(C=O)=C[C@H](O[Si](C)(C)C(C)(C)C)[C@H]4/C=C\2C)C3=O)CC1(C)[N+](=O)[O-] (stereo partly specified): > 10 µM

Data request: Query (compound): COC(=O)NC1[C@H](C)O[C@@H](O[C@H]2C/C=C(\C)[C@@H]3C=C[C@@H]4[C@@H](O[C@H]5CCCCO5)[C@@H](C)C[C@H](C)[C@H]4[C@]3(C)/C(O)=C3\C(=O)O[C@]4(CC(C=O)=C[C@H](OC(C)=O)[C@H]4/C=C\2C)C3=O)CC1(C)[N+](=O)[O-] (stereo partly specified) ; field requested: AC3
Data returned: 3.9 µM

Data request: Query (compound): COCCOCCOCC(=O)O[C@@H]1[C@H]2C=C[C@H]3/C(C)=C/C[C@H](O[C@H]4CC(C)([N+](=O)[O-])C(NC(=O)OC)[C@H](C)O4)/C(C)=C\[C@@H]4[C@@H](O[Si](C)(C)C(C)(C)C)C=C(C=O)C[C@]45OC(O)=C(C(=O)[C@@]3(C)[C@@H]2[C@@H](C)C[C@@H]1C)C5=O (stereo partly specified) ; field requested: AC3
Data returned: 9.5 µM

Data request: Query (compound): COC(=O)NC1[C@H](C)O[C@@H](O[C@H]2C/C=C(\C)[C@@H]3C=C[C@@H]4[C@@H](OC5(C)O[C@@H]6OC(COC(C)=O)[C@@H](OC(C)=O)C(OC(C)=O)[C@@H]6O5)[C@@H](C)C[C@H](C)[C@H]4[C@]3(C)/C(O)=C3\C(=O)O[C@]4(CC(C=O)=C[C@H](OC(C)=O)[C@H]4/C=C\2C)C3=O)CC1(C)[N+](=O)[O-] (stereo partly specified) ; field requested: AC3
Data returned: 5.7 µM

Data request: Query (compound): COC(=O)NC1[C@H](C)O[C@@H](O[C@H]2C/C=C(\C)[C@@H]3C=C[C@@H]4[C@@H](O)[C@@H](C)C[C@H](C)[C@H]4[C@]3(C)/C(O)=C3\C(=O)O[C@]4(CC(C=O)=C[C@H](OC(C)=O)[C@H]4/C=C\2C)C3=O)CC1(C)[N+](=O)[O-] (stereo partly specified) ; field requested: AC3
Data returned: 8.4 µM
